Data provenance is the RNAGym collection of RNA variant scans (doi:10.7554/elife.80360).

B1: HDV Ribozyme (parent)
chain: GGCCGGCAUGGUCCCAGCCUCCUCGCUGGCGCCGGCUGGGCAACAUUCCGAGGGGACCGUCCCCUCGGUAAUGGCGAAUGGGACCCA

# Variants of: B1
# test-protocol: self-cleavage, relative activity (ratio to wild type); higher = more cleavage; co-transcriptional
property: self-cleavage
Respond using a number only.

Examples from the recorded data:
1) A70C U72C
0.369
2) A56G C57A
0.847
3) G28A G73A
0.112
4) G5C A56C
0
5) C3U C7U
0.529

Request: Which self-cleavage value belongs to C4G C66G ?
Response: 0.727
